Experiment: Cell Viability - LYMP2-021 (AID 974);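 note: compound exposure lasts 24 hours at 37 °C; nearly all actives have a fitted effect of over 55% in size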
Conditions: LYMP2-021 lymphoblastoid cells viability; series mostly up to 92.2 µM
Text: NIH Chemical Genomics Center [NCGC] NIH Molecular Libraries Screening Centers Network [MLSCN] National Institutes of Environmental Health Sciences [NIEHS] National Toxicology Program [NTP] We have developed a 1536-well cell-based assay for quantitative high throughput screening (qHTS) against a number of cell lines to determine in vitro cytotoxicity of small molecules. […] 8. Detection; Luminescence; Viewlux plate reader […]
Inconclusive results are not listed. Active and inactive are the calls of the source. Calls come from the whole dose curve; as a rule, active = well fitted cell-killing curve with a large enough effect; inconclusive = small, poorly fitted or top-dose-only effect; inactive = flat fitted curve, though single readings scatter.
QUANTITY_NAME: outcome

[[record]]
compound = "Nc1c2c(nc3ccccc13)CCCC2"
assay_value = "inactive"

[[record]]
compound = "N[C@@H](Cc1c[nH]c2ccc(O)cc12)C(=O)O"
assay_value = "inactive"

[[record]]
compound = "COc1ccc2c(c1)c(CC(=O)O)c(C)n2C(=O)c1ccc(Cl)cc1"
assay_value = "inactive"

[[record]]
compound = "Clc1ccc(C(c2ccccc2Cl)C(Cl)Cl)cc1 (stereo not drawn)"
assay_value = "inactive"

[[record]]
compound = "Nc1ccn([C@H]2CC[C@@H](CO)O2)c(=O)n1"
assay_value = "inactive"

[[record]]
compound = "CCC1(c2ccccc2)C(=O)NCNC1=O"
assay_value = "inactive"

[[record]]
compound = "Cc1cn([C@H]2C=C[C@@H](CO)O2)c(=O)[nH]c1=O"
assay_value = "inactive"

[[record]]
compound = "O=c1[nH]cc(F)c(=O)[nH]1"
assay_value = "inactive"

[[record]]
compound = "NS(=O)(=O)c1cc2c(cc1Cl)NCNS2(=O)=O"
assay_value = "inactive"

[[record]]
compound = "Cn1c(=O)c2c(ncn2C)n(C)c1=O"
assay_value = "inactive"

[[record]]
compound = "Cn1c(=O)c2[nH]cnc2n(C)c1=O"
assay_value = "inactive"

[[record]]
compound = "NCCS(=O)(=O)O"
assay_value = "inactive"

[[record]]
compound = "O=c1c(-c2ccc(O)cc2)coc2cc(O)cc(O)c12"
assay_value = "inactive"


* * *

Experiment: qHTS drug screen for cell cycle checkpoint inhibitors in PARPi-resistant BRCA-mutant ovarian cancer cell lines. (AID 1963452)
Settings: PEO1/OlaR viability, CellTiter-Glo luminescence, 96 h; measured here: PEO4 Z-AUC; stronger effect = lower value
Returns: string. Value is 1 if measured Z-AUC is below 0.3, and 0 if it is greater than or equal to it.

[[record]]
compound = "Cn1c(=O)c2c(ncn2C)n(C)c1=O"
label_class = 0

[[record]]
compound = "CN(C)CCC=C1c2ccccc2C=Cc2ccccc21"
label_class = 0

[[record]]
compound = "CC#C[C@]1(O)CC[C@H]2[C@@H]3CCC4=CC(=O)CCC4=C3[C@@H](c3ccc(N(C)C)cc3)C[C@@]21C"
label_class = 1

[[record]]
compound = "O=C1c2c(O)ccc(O)c2C(=O)c2c(NCCNCCO)ccc(NCCNCCO)c21"
label_class = 1

[[record]]
compound = "COc1ccccc1N1CCN(CC(O)COc2cccc3ccccc23)CC1 (stereo not given)"
label_class = 0


* * *

System: CP315
Assay: qHTS profiling for inhibitors of Plasmodium falciparum proliferation (AID 504749); note: nearly all actives have a fitted effect of over 60% in size
Details: P. falciparum in erythrocytes, SYBR Green DNA, 72 h; series mostly up to 28.7 µM
Inconclusive results are not listed. Active and inactive are the calls of the source. Calls come from the whole dose curve; as a rule, active = well fitted inhibition curve with a large enough effect; inconclusive = small, poorly fitted or top-dose-only effect; inactive = flat fitted curve, though single readings scatter.
Outcome codes: True (active), False (inactive)

[[record]]
compound = "NCCCCCC(=O)O"
tested_target = "CP315"
label_class = "False"

[[record]]
compound = "CN(C)CCCN1c2ccccc2CCc2ccc(Cl)cc21"
tested_target = "CP315"
label_class = "False"

[[record]]
compound = "NS(=O)(=O)c1cc2c(cc1Cl)NCNS2(=O)=O"
tested_target = "CP315"
label_class = "False"

[[record]]
compound = "Nc1nc2c(ncn2COC(CO)CO)c(=O)[nH]1"
tested_target = "CP315"
label_class = "False"

[[record]]
compound = "O=c1c(-c2ccc(O)cc2)coc2cc(O)cc(O)c12"
tested_target = "CP315"
label_class = "False"

[[record]]
compound = "O=C(c1ccc(F)cc1)C1CCN(CCn2c(=O)[nH]c3ccccc3c2=O)CC1"
tested_target = "CP315"
label_class = "False"

[[record]]
compound = "NC12CC3CC(CC(C3)C1)C2"
tested_target = "CP315"
label_class = "False"

[[record]]
compound = "CC(C)(Oc1ccc(C2CC2(Cl)Cl)cc1)C(=O)O (configuration not stated)"
tested_target = "CP315"
label_class = "False"

[[record]]
compound = "CN1CCC(=C2c3ccccc3CC(=O)c3sccc32)CC1"
tested_target = "CP315"
label_class = "False"

[[record]]
compound = "OCCN1CCN(CCCN2c3ccccc3Sc3ccc(C(F)(F)F)cc32)CC1"
tested_target = "CP315"
label_class = "True"

[[record]]
compound = "Cn1c(=O)c2c(ncn2C)n(C)c1=O"
tested_target = "CP315"
label_class = "False"

[[record]]
compound = "COc1ccccc1OCC(O)CN1CCN(CC(=O)Nc2c(C)cccc2C)CC1 (configuration not stated)"
tested_target = "CP315"
label_class = "False"


* * *

Biological target: Glutaminase kidney isoform, mitochondrial (Homo sapiens) (UniProt O94925)
Sequence (O94925 whole entry, looked up, canonical isoform): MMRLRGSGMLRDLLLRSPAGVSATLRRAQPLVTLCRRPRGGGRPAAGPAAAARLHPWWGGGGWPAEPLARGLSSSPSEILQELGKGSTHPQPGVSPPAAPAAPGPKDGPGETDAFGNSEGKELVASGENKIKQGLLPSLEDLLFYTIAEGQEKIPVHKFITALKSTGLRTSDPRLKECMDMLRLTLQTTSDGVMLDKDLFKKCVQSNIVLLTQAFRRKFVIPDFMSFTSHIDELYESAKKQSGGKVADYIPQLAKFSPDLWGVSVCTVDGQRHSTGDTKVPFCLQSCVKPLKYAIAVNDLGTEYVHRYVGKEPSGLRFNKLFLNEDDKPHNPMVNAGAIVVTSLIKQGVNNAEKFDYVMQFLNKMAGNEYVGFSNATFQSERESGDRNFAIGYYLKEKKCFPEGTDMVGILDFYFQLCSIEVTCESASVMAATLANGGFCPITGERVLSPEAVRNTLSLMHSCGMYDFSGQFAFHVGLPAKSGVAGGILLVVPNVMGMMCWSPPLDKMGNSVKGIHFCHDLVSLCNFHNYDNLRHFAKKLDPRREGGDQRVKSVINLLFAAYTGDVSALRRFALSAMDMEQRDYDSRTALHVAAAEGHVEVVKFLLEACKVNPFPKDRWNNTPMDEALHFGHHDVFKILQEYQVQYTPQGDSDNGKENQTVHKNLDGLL
Assay: qHTS for Inhibitors of Glutaminase (GLS): LOPAC Validation (AID 624146); note: nearly all actives have a fitted effect of over 60% in size
Details: glutaminase enzyme activity inhibition; series mostly up to 46.1 µM
Records with an inconclusive call do not appear. The source made the active and inactive calls. Calls come from the whole dose curve; as a rule, active = well fitted inhibition curve with a large enough effect; inconclusive = small, poorly fitted or top-dose-only effect; inactive = no such curve, though single readings can be large or run the other way.
Outcome codes: active, inactive

[[record]]
compound = "C[C@](N)(Cc1ccc(O)c(O)c1)C(=O)O"
tested_target = "Glutaminase kidney isoform, mitochondrial (Homo sapiens) (UniProt O94925)"
label_class = "inactive"

[[record]]
compound = "Fc1ccc([C@@H]2CCNC[C@H]2COc2ccc3c(c2)OCO3)cc1"
tested_target = "Glutaminase kidney isoform, mitochondrial (Homo sapiens) (UniProt O94925)"
label_class = "inactive"

[[record]]
compound = "CC12CC3CC(C)(C1)CC(N)(C3)C2"
tested_target = "Glutaminase kidney isoform, mitochondrial (Homo sapiens) (UniProt O94925)"
label_class = "inactive"

[[record]]
compound = "O=C(Nc1ccc([N+](=O)[O-])cc1Cl)c1cc(Cl)ccc1O"
tested_target = "Glutaminase kidney isoform, mitochondrial (Homo sapiens) (UniProt O94925)"
label_class = "inactive"

[[record]]
compound = "COc1ccc2c(c1)c(CC(=O)O)c(C)n2C(=O)c1ccc(Cl)cc1"
tested_target = "Glutaminase kidney isoform, mitochondrial (Homo sapiens) (UniProt O94925)"
label_class = "inactive"

[[record]]
compound = "OCCN(CCO)c1nc(N2CCCCC2)c2nc(N(CCO)CCO)nc(N3CCCCC3)c2n1"
tested_target = "Glutaminase kidney isoform, mitochondrial (Homo sapiens) (UniProt O94925)"
label_class = "inactive"

[[record]]
compound = "Nc1nc2c(ncn2COC(CO)CO)c(=O)[nH]1"
tested_target = "Glutaminase kidney isoform, mitochondrial (Homo sapiens) (UniProt O94925)"
label_class = "inactive"

[[record]]
compound = "CC(C)NCC(O)COc1ccc(CCOCC2CC2)cc1 (configuration not stated)"
tested_target = "Glutaminase kidney isoform, mitochondrial (Homo sapiens) (UniProt O94925)"
label_class = "inactive"

[[record]]
compound = "CCOC(=O)Nc1ccc(NCc2ccc(F)cc2)nc1N"
tested_target = "Glutaminase kidney isoform, mitochondrial (Homo sapiens) (UniProt O94925)"
label_class = "active"

[[record]]
compound = "Clc1ccc2nsnc2c1NC1=NCCN1"
tested_target = "Glutaminase kidney isoform, mitochondrial (Homo sapiens) (UniProt O94925)"
label_class = "inactive"

[[record]]
compound = "O=C(C1CCCCC1)N1CC(=O)N2CCc3ccccc3C2C1 (configuration not stated)"
tested_target = "Glutaminase kidney isoform, mitochondrial (Homo sapiens) (UniProt O94925)"
label_class = "inactive"

[[record]]
compound = "CNCCCC12CCC(c3ccccc31)c1ccccc12"
tested_target = "Glutaminase kidney isoform, mitochondrial (Homo sapiens) (UniProt O94925)"
label_class = "inactive"


* * *

Assay: qHTS of pediatric cancer cell lines to identify multiple opportunities for drug repurposing: Primary screen for NB-EBc1 cells (AID 1347095)
Details: NB-EBc1 neuroblastoma viability, CellTiter-Glo luminescence, 48 h; series mostly up to 46 µM
Experimental: Drug repurposing or repositioning has been offered as a strategy for drug development in oncology programs. This approach has special potential for childhood cancers and other rare or orphan diseases, where the expected return on new drug development has been a disincentive to pharmaceuticals. […] We employed a titration-based paradigm (quantitative high-throughput screening or qHTS), where all compounds were tested at multiple concentrations for their effect on cell viability. […]
Records with an inconclusive call do not appear. Activity calls are given as the source filed them. Calls come from the whole dose curve; as a rule, active = well fitted cell-killing curve with a large enough effect; inconclusive = small, poorly fitted or top-dose-only effect; inactive = no such curve, though single readings can be large or run the other way.
Outcome codes: active, inactive

[[record]]
given_smiles = "CC(C)C(=O)Nc1ccc([N+](=O)[O-])c(C(F)(F)F)c1"
label_class = "inactive"

[[record]]
given_smiles = "NS(=O)(=O)c1cc2c(cc1Cl)NCNS2(=O)=O"
label_class = "inactive"

[[record]]
given_smiles = "O=C(CCCN1CCC(O)(c2ccc(Cl)cc2)CC1)c1ccc(F)cc1"
label_class = "inactive"

[[record]]
given_smiles = "CCCCc1oc2ccccc2c1C(=O)c1cc(I)c(OCCN(CC)CC)c(I)c1"
label_class = "active"

[[record]]
given_smiles = "CN(C)C(=N)N=C(N)N"
label_class = "inactive"

[[record]]
given_smiles = "CCC1(c2ccccc2)C(=O)NCNC1=O"
label_class = "inactive"

